// data source = paper PMC12069340

- Experiment summary: in vitro
- Details: human
Reported endpoint: CC50 (µM)
Field: numeric (µM). Do not append units.

Lab note: measured CC50 of `CCCN(CCc1cccs1)[C@H]1CCc2c(O)cccc2C1` was 372

----------
- Experiment summary: in vitro
Reported endpoint: CC50

[[record]]
compound = "C=C(CC)C(=O)c1ccc(OCC(=O)O)c(Cl)c1Cl"
result_value = "240 µM"


From here, focus on the item given below.
Lab note: measured CC50 of COc1cc([C@@H]2c3cc4c(cc3[C@@H](O[C@@H]3O[C@@H]5CO[C@@H](C)O[C@H]5[C@H](O)[C@H]3O)[C@H]3COC(=O)[C@H]23)OCO4)cc(OC)c1O [etoposide] was 260 µM

----------
- Experiment summary: in vitro
- Details: human
Reported endpoint: CC50 at 48 h (µM)
Field: numeric (µM). Do not append units.

Lab note: measured CC50 at 48 h of O=C(c1ccc(OCCCc2cnc[nH]2)cc1)C1CC1 [Ciproxifan] was 556

----------
- System: A/Human/Hubei/3/2005 (H3N2)
- Experiment summary: microbe, parasite or virus in culture
- Format: cell-based
- Details: Influenza A virus, H3N2, A549, 48 h, read-out: H3N2 IC50
Structures can show the parent of a compound that is named as a salt.
Reported endpoint: IC50

[[record]]
compound = "CCCN(CCc1cccs1)[C@H]1CCc2c(O)cccc2C1 [Rotigotine]"
assayed_target = "A/Human/Hubei/3/2005 (H3N2)"
result_value = "21.9 µM"


Lab note: measured IC50 of O=C(c1ccc(OCCCc2cnc[nH]2)cc1)C1CC1 [Ciproxifan] was 14.9 µM

Lab note: measured IC50 of CC(COc1ccccc1)NC(C)C(O)c1ccc(O)cc1 (stereo not drawn) [Isoxsuprine, Isoxsuprine hydrochloride] was 34.3 µM

----------
- Test system: U937 cells
- Details: 20 µM
Entries and their Relative Viability (%) values follow.
Field: numeric (%). Do not append units.

The following compounds have reported results that may help.
[[record]]
compound = "COc1ccc(C[C@@H](C)NC[C@H](O)c2ccc(O)c(NC=O)c2)cc1.COc1ccc(C[C@@H](C)NC[C@H](O)c2ccc(O)c(NC=O)c2)cc1.O=C(O)/C=C/C(=O)O [Formoterol Hemifumarate]"
result_value = 121.9

[[record]]
compound = "CN1CCc2cc3c(cc2[C@H]1[C@@H]1OC(=O)c2c1ccc1c2OCO1)OCO3 [(+)-Bicuculline]"
result_value = 98.1

[[record]]
compound = "Cc1c(Cl)c(OCC(=O)N2CCN(C)CC2)nc2sc(C(=O)NC3CC3)c(N)c12"
result_value = 99.3

[[record]]
compound = "CN(C)CCOC(c1ccc(Cl)cc1)c1ccccn1.O=C(O)/C=C\\C(=O)O (centres unmarked) [ArbinoxaMine Maleate]"
result_value = 94.3


From here, focus on the item given below.
Lab note: measured Relative Viability (%) of `CCCCCCNC(=O)Nc1ccc(S(=O)(=O)Nc2ccc(CCNC[C@H](O)COc3ccc(O)cc3)cc2)cc1` was 100.1

----------
Entries and their viability at 20 µM values follow.
- Experiment summary: in vitro
- Details: human, Relative Viability (%)
Structures can show the parent of a compound that is named as a salt.

The following compounds have reported results that may help.
[[record]]
compound = "CCCC(=O)Nc1ccc(OCC(O)CNC(C)C)c(C(C)=O)c1 (centres unmarked) [Acebutolol HCl]"
result_value = "106%"

[[record]]
compound = "CCOc1cc(N)c(Cl)cc1C(=O)NCC1CN(Cc2ccc(F)cc2)CCO1 (centres unmarked) [Mosapride Citrate]"
result_value = "112%"

[[record]]
compound = "CN(C)C(=O)Oc1ccc[n+](C)c1 [Pyridostigmine Bromide]"
result_value = "88.2%"

[[record]]
compound = "Cc1ccccc1C(OCCN(C)C)c1ccccc1 (centres unmarked) [Orphenadrine Citrate]"
result_value = "106%"

[[record]]
compound = "Cc1cccc(Cc2c[nH]cn2)c1C [Detomidine HCl]"
result_value = "109%"


Lab note: measured viability at 20 µM of CCCN[C@H]1CCc2nc(N)sc2C1 [Pramipexole dihydrochloride monohydrate] was 100%

----------
Entries and their CC50 at 48 h values follow.
- Experiment summary: in vitro
- Details: dog
Counter-ions that a name gives are not always drawn.

The following molecules have reported results that may help.
[[record]]
molecule = "CC(COc1ccccc1)NC(C)C(O)c1ccc(O)cc1 (stereo not drawn) [Isoxsuprine, Isoxsuprine hydrochloride]"
result_value = "> 400 µM"

[[record]]
molecule = "CCCN(CCc1cccs1)[C@H]1CCc2c(O)cccc2C1"
result_value = "93 µM"


Lab note: measured CC50 at 48 h of `O=C(c1ccc(OCCCc2cnc[nH]2)cc1)C1CC1` was > 400 µM

----------
Entries and their viability at 20 µM values follow.
- Experiment summary: in vitro
- Details: human, Relative Viability (%)
Field: numeric (%). Do not append units.

Lab note: measured viability at 20 µM of CC(C[N+](C)(C)C)OC(N)=O (stereo not drawn) [Bethanechol chloride] was 103

----------
- Tested on: A/PuertoRico/8/1934 (H1N1) virus
- Experiment summary: microbe, parasite or virus in culture
- Format: cell-based, influenza A virus
- Details: Influenza A virus, H1N1, U-937, 48 h; read-out: NA Inhibition (%)
Structures can show the parent of a compound that is named as a salt.
Please note: true applies when inhibition at 20 µM is 20% or greater, and false applies otherwise.

Answered cases to consult:
[[record]]
compound = "CN1CCC(=C2c3ccccc3C=Cc3ccccc32)CC1 [Cyproheptadine HCl]"
group = "false"

[[record]]
compound = "CCCN1C[C@H](CSC)C[C@@H]2c3cccc4[nH]cc(c34)C[C@H]21 [Pergolide mesylate]"
group = "true"


State whether the measured inhibition at 20 µM reaches 20%, counting equality as reaching it, for CC(C)NCC(O)c1ccc(O)c(O)c1 (stereo not drawn) [Isoprenaline HCl]
false

State whether the measured inhibition at 20 µM reaches 20%, counting equality as reaching it, for CN1CCCC(n2nc(Cc3ccc(Cl)cc3)c3ccccc3c2=O)CC1 (stereo not drawn) [Azelastine HCl]
true

State whether the measured inhibition at 20 µM reaches 20%, counting equality as reaching it, for O=C1c2c(O)cc(O)cc2O[C@H](c2cc(O)c(O)c(O)c2)[C@H]1O [Dihydromyricetin]
false

State whether the measured inhibition at 20 µM reaches 20%, counting equality as reaching it, for `Cc1cccn2c(=O)c(-c3nnn[nH]3)cnc12`
false

State whether the measured inhibition at 20 µM reaches 20%, counting equality as reaching it, for O=C(O[C@H]1CN2CCC1CC2)N1CCc2ccccc2[C@@H]1c1ccccc1 [Solifenacin succinate]
true

State whether the measured inhibition at 20 µM reaches 20%, counting equality as reaching it, for C[N+]1(C)CCC(=C(c2ccccc2)c2ccccc2)CC1 [Diphemanil Methylsulfate]
false

State whether the measured inhibition at 20 µM reaches 20%, counting equality as reaching it, for `O=C(c1ccc(OCCCc2cnc[nH]2)cc1)C1CC1`
true

State whether the measured inhibition at 20 µM reaches 20%, counting equality as reaching it, for Cc1cccc(C)c1N=C1NCCCS1 [Xylazine HCl]
false

State whether the measured inhibition at 20 µM reaches 20%, counting equality as reaching it, for CN(C)CCCN1c2ccccc2Sc2ccc(Cl)cc21 [Chlorpromazine HCl]
true

State whether the measured inhibition at 20 µM reaches 20%, counting equality as reaching it, for `Cc1ccsc1C(=CCCN1CCC[C@@H](C(=O)O)C1)c1sccc1C`
false

State whether the measured inhibition at 20 µM reaches 20%, counting equality as reaching it, for N#Cc1ccc2[nH]cc(CCCCN3CCN(c4ccc5oc(C(N)=O)cc5c4)CC3)c2c1 [Vilazodone HCl]
false

State whether the measured inhibition at 20 µM reaches 20%, counting equality as reaching it, for NC12CC3CC(CC(C3)C1)C2 [Amantadine HCl]
true

State whether the measured inhibition at 20 µM reaches 20%, counting equality as reaching it, for CCCCCCCCOc1ccccc1C(=O)Nc1ccc(C(=O)OCC[N+](C)(CC)CC)cc1 [Otilonium Bromide]
false

State whether the measured inhibition at 20 µM reaches 20%, counting equality as reaching it, for CC(C)C(=O)Oc1ccc(CO)cc1[C@H](CCN(C(C)C)C(C)C)c1ccccc1 [Fesoterodine Fumarate]
false

State whether the measured inhibition at 20 µM reaches 20%, counting equality as reaching it, for C[N+]1(C)[C@@H]2CC[C@H]1C[C@@H](OC(=O)C(O)c1ccccc1)C2 (stereo partly drawn) [Homatropine Methylbromide]
false

State whether the measured inhibition at 20 µM reaches 20%, counting equality as reaching it, for CCN1CCCC1CNC(=O)c1cc(S(=O)(=O)CC)c(N)cc1OC (stereo not drawn) [Amisulpride]
false

----------
- Test system: A/PuertoRico/8/1934 (H1N1) virus
- Experiment summary: microbe, parasite or virus in culture
- Format: cell-based, influenza A virus
- Details: Influenza A virus, H1N1, U-937, 48 h; read-out: NA Inhibition (%)
Structures can show the parent of a compound that is named as a salt.
Entries and their inhibition at 20 µM values follow.
Field: numeric (%). Do not append units.

The following compounds have reported results that may help.
[[record]]
compound = "CN(C)[C@@H](CCOc1cccc2ccccc12)c1ccccc1 [Dapoxetine HCl]"
assayed_target = "A/PuertoRico/8/1934 (H1N1) virus"
unit_tag = "%"
result_value = 63.4

[[record]]
compound = "COC(=O)C1=CCCN(C)C1 [Arecoline]"
assayed_target = "A/PuertoRico/8/1934 (H1N1) virus"
unit_tag = "%"
result_value = -10.6

[[record]]
compound = "OC[C@@H](O)CN1CCN(c2ccccc2)CC1 [Levodropropizine]"
assayed_target = "A/PuertoRico/8/1934 (H1N1) virus"
unit_tag = "%"
result_value = 35.7

[[record]]
compound = "O=C(O[C@H]1C[N+]2(CCCOc3ccccc3)CCC1CC2)C(O)(c1cccs1)c1cccs1 [Aclidinium Bromide]"
assayed_target = "A/PuertoRico/8/1934 (H1N1) virus"
unit_tag = "%"
result_value = 13.8

[[record]]
compound = "CN(C)C(=O)Oc1cccc([N+](C)(C)C)c1 [Neostigmine Bromide]"
assayed_target = "A/PuertoRico/8/1934 (H1N1) virus"
unit_tag = "%"
result_value = 2

[[record]]
compound = "CCCC(CCC)C(=O)O [Valproic acid sodium salt]"
assayed_target = "A/PuertoRico/8/1934 (H1N1) virus"
unit_tag = "%"
result_value = -18.5


Lab note: measured inhibition at 20 µM of CN(C)CCC(c1ccc(Cl)cc1)c1ccccn1 (stereo not shown) [Chlorpheniramine Maleate] was 1

Lab note: measured inhibition at 20 µM of NC[C@H](CC(=O)O)c1ccc(Cl)cc1 [(R)-baclofen] was 46.4

Lab note: measured inhibition at 20 µM of CCCN(CCc1cccs1)[C@H]1CCc2c(O)cccc2C1 [Rotigotine] was 89.1

Lab note: measured inhibition at 20 µM of c1ccc(CC2=NCCN2)cc1 [Tolazoline HCl] was 14.5
